- Procedure Summary: in vitro
- Condition Notes: human, hela cells, % viability
Property: viability at 28.5 h, 10 µM; scope: individual molecules
Entry rule: numbers only, all in %.

Q) Please look at this molecule and report its viability at 28.5 h, 10 µM: O=C(Nc1cccc(-c2noc(Cc3ccccc3)n2)c1)c1cccs1
A) 101

----------
Property: viability at 28.5 h, 10 µM; scope: individual compounds
- Procedure Summary: in vitro
- Condition Notes: human, hela cells, % viability
Entry rule: numbers only, all in %.

Compound | Output Unit | viability at 28.5 h, 10 µM
COc1nnc(-c2ccc(N3CCOCC3)c(NC(=O)COc3ccc(C)cc3)c2)c2ccccc12 | % | 97.6
CC(C)C(CO)NC(=O)C1(Cc2ccc(-c3ccc(F)c(F)c3)cc2)CCOCC1 (stereo not shown) | % | 87.7
CN(C1CCCCC1)S(=O)(=O)NCCc1cn2ccccc2n1 | % | 102
Cn1nccc1C(=O)C1CCN(C(=O)c2ccccc2F)CC1 | % | 94.5

Here is the next item to consider.
Q) Please look at this compound and report its viability at 28.5 h, 10 µM: O=c1[nH]c(=O)c2cc(S(=O)(=O)NCC3(c4ccccc4)CCCC3)ccc2[nH]1
A) 112

----------
- Procedure Summary: in vitro
- Condition Notes: human, hela cells, % viability
Property: viability at 28.5 h, 10 µM; scope: individual molecules
Entry rule: numbers only, all in %.

As a guide, the following entries are already answered.
Molecule | Reported Metric | Output Unit | Result Number
O=C(Nc1nc2ccccc2[nH]1)c1ccncc1 [CBK288626] | viability at 28.5 h, 10 µM | % | 95.3
CC(C)(C)c1cc(C(=O)NCc2ccccn2)n(Cc2ccc(Cl)cc2Cl)n1 [CBK107288] | viability at 28.5 h, 10 µM | % | 101
CCOC(=O)N1CCC(NS(=O)(=O)c2cc(Br)ccc2OC)CC1 [CBK045463] | viability at 28.5 h, 10 µM | % | 115

Q) Please look at this molecule and report its viability at 28.5 h, 10 µM: C/C(CS(=O)(=O)c1ccccc1)=N/NC(N)=S [CBK026285]
A) 111

Q) Please look at this molecule and report its viability at 28.5 h, 10 µM: O=C(O)COCCn1cc(-c2ccc(Cl)cc2)cn1 [CBK021914]
A) 84.5

----------
Property: viability at 28.5 h, 10 µM; scope: individual compounds
- Procedure Summary: in vitro
- Condition Notes: human, hela cells, % viability
Entry rule: numbers only, all in %.

Compound | Output Unit | viability at 28.5 h, 10 µM
O=C1CCC(=O)N1CCOc1nccnc1OC1CCN(CCc2ccc3ccccc3c2)CC1 | % | 99.4
CCS(=O)(=O)N1CCC(NC(=O)NC(C)c2ccccc2Cl)CC1 (stereo not drawn) | % | 95.3
O=C(Nc1ccc(Cl)cc1)N1CCCCC1CO (stereo not drawn) | % | 99.5

Q) Please look at this compound and report its viability at 28.5 h, 10 µM: CCOc1ccc(OC(=O)c2cccc(C)c2)cc1
A) 101

Q) Please look at this compound and report its viability at 28.5 h, 10 µM: CCOC(=O)CSc1nnc(-c2ccncc2)n1-c1ccccc1
A) 92

Q) Please look at this compound and report its viability at 28.5 h, 10 µM: O=C1NC(=O)C(c2ccccc2)(c2ccccn2)N1 (stereo not drawn)
A) 97

Q) Please look at this compound and report its viability at 28.5 h, 10 µM: O=c1[nH]cc(-c2ccccc2)cc1CNc1ccccc1-n1ccnc1
A) 101

Q) Please look at this compound and report its viability at 28.5 h, 10 µM: O=C(O)[C@@H]1CSC(c2ccc3c(c2)OCO3)N1 (stereo partly drawn)
A) 89.8

Q) Please look at this compound and report its viability at 28.5 h, 10 µM: COc1ccc(-c2ccc(OCCNC(=O)c3cccc(F)c3)nn2)cc1
A) 87.1

Q) Please look at this compound and report its viability at 28.5 h, 10 µM: CS(=O)(=O)Nc1cccc(C(=O)O)c1
A) 96.3

Q) Please look at this compound and report its viability at 28.5 h, 10 µM: c1cc2c(cc1CN1CCC(Oc3cncc(OCCN4CCOCC4)n3)C1)OCO2 (stereo not drawn)
A) 96.7

Q) Please look at this compound and report its viability at 28.5 h, 10 µM: O=C(O)c1ccc2c(c1)C(=O)N(c1nc(-c3cccnc3)n[nH]1)C2=O
A) 100

Q) Please look at this compound and report its viability at 28.5 h, 10 µM: CC(C)Nc1cc(SCc2cccc(C(F)(F)F)c2)ncn1
A) 88.2

Q) Please look at this compound and report its viability at 28.5 h, 10 µM: OCCNc1ncnc2c1ncn2Cc1ccccc1
A) 106

Q) Please look at this compound and report its viability at 28.5 h, 10 µM: O=C(c1ccco1)N1CCN(c2ncc(-c3ccc(N4CCOCC4)cc3)n3ccnc23)CC1
A) 92.6

Source: paper PMC12040169
